- target.of.assay: wtCFTR; CFTR (Homo sapiens, UniProt P13569, K68I)
- assay.protocol: scintillation proximity competition assay vs [3H]lumacaftor
recorded.metric: Ki (nM)
Form entry: value (nM) — number only.

Item: CC(C)(CO)c1cc2cc(NC(=O)C3(c4ccc5c(c4)OC(F)(F)O5)CC3)c(F)cc2n1C[C@@H](O)CO | Ki: 120

----------
- target.of.assay: wtCFTR; CFTR (Homo sapiens, UniProt P13569, S364F)
- Sequence (P13569 whole entry S364F): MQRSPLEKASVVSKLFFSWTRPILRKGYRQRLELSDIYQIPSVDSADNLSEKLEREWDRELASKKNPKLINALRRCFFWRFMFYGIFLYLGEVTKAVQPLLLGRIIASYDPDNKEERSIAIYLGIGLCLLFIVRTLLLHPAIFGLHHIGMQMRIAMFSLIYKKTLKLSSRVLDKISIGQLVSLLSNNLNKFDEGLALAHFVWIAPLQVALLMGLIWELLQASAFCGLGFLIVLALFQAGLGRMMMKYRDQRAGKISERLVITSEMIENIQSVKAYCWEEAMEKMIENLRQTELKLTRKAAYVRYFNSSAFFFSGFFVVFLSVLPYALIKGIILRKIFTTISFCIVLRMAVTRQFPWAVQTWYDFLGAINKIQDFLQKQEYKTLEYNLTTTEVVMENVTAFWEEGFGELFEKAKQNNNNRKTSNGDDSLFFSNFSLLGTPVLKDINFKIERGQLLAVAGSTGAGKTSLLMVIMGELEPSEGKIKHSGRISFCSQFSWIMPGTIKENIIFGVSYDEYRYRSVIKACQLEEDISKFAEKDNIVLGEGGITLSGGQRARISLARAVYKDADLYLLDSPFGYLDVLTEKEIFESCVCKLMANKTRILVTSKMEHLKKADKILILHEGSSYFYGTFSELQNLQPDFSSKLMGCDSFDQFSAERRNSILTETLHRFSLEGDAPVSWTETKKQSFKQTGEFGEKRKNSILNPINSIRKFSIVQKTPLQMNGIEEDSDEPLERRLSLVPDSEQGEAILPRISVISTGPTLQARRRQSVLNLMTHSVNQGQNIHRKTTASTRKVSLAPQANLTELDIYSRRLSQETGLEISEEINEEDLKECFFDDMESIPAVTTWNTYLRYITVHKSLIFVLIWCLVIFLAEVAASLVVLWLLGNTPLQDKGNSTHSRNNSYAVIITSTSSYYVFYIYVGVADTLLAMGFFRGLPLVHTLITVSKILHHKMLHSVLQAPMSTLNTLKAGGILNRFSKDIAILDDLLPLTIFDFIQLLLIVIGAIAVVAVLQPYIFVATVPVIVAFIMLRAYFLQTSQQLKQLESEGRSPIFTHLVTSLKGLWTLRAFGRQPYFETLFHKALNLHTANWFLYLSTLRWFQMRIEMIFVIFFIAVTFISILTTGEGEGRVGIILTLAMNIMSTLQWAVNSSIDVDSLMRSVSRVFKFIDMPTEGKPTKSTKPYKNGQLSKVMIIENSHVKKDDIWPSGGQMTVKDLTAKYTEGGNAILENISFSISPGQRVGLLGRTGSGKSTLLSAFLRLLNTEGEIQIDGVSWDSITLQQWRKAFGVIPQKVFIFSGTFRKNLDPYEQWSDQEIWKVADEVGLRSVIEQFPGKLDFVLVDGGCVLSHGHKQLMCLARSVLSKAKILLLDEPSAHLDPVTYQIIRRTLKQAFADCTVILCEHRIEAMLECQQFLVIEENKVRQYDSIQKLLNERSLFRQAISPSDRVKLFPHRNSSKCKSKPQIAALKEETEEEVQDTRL
- assay.protocol: quantitative binding measurement on purified CFTR
recorded.metric: pKd
In textbook form, pKd equals minus log to base ten of the concentration in mol/L.

Item: CC(C)(C)c1cc(C(C)(C)C)c(NC(=O)c2c[nH]c3ccccc3c2=O)cc1O | pKd: 8.05
